- Tested on: Plasmodium falciparum
- assay.procedure: Antimalarial activity against ring stage chloroquine-resistant Plasmodium falciparum RKL9 assessed as inhibition of parasite growth by SYBR green I dye based assay
- Assay type: functional, organism-based
parameter: IC50 (nM)
Give bare numbers, in nM.

// query Please report IC50 for the following compound: O=C(Cn1cc(CN2CCN(c3ccnc4cc(Cl)ccc34)CC2)nn1)Nc1cccc([N+](=O)[O-])c1
// result 1800

---

- target.desc: Falcipain-3 (Plasmodium falciparum 3D7, UniProt Q8IIL0)
- Sequence (Q8IIL0 243-492 limits assumed): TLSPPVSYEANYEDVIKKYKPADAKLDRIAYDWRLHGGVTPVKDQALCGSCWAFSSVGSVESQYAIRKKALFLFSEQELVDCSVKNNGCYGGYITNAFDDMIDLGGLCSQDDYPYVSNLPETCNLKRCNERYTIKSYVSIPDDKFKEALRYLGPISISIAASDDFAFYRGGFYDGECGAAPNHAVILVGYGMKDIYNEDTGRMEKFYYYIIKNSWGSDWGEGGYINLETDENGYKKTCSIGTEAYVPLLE
- assay.procedure: Inhibition of N-terminal 6His-tagged recombinant Plasmodium falciparum FP3 expressed in Escherichia coli M15 using Z-Phe-Arg-AMC as substrate measured after 30 mins by microplate reader analysis
parameter: pIC50
One number for each entry, as −log10 of the molar value.

// query Please report pIC50 for the following compound: O=C(Cn1cc(CN2CCN(c3ccnc4cc(Cl)ccc34)CC2)nn1)Nc1cccc([N+](=O)[O-])c1
// result 4.50

---

- Tested on: Plasmodium falciparum
- assay.procedure: Resistance index, ratio of IC50 for antimalarial activity against chloroquine-resistant Plasmodium falciparum K1 to IC50 for antimalarial activity against chloroquine-sensitive Plasmodium falciparum NF54
- Format: functional
Assignment: determine reported Ratio IC50 for the given compounds.
Numbers only.

Answered cases to consult:
Cc1ccc(NC(=O)Cn2cc(CN3CCN(c4ccnc5cc(Cl)ccc45)CC3)nn2)cc1    2.4
O=C(Cn1cc(CN2CCN(c3ccnc4cc(Cl)ccc34)CC2)nn1)Nc1cccc([N+](=O)[O-])c1    1.95
O=C(Cn1cc(CN2CCN(c3ccnc4cc(Cl)ccc34)CC2)nn1)Nc1ccccc1Cl    3.29
O=C(Cn1cc(CN2CCN(c3ccnc4cc(Cl)ccc34)CC2)nn1)Nc1cccc(F)c1    1.7
O=C(Cn1cc(CN2CCN(c3ccnc4cc(Cl)ccc34)CC2)nn1)Nc1ccc(F)cc1    1.77

// query Report measured Ratio IC50 on Plasmodium falciparum; entry: O=C(Cn1cc(CN2CCN(c3ccnc4cc(Cl)ccc34)CC2)nn1)Nc1cccc(Cl)c1
// result 4.74

---

- target.desc: Falcipain 2 (Plasmodium falciparum, UniProt Q9N6S8)
- Sequence (Q9N6S8 whole entry): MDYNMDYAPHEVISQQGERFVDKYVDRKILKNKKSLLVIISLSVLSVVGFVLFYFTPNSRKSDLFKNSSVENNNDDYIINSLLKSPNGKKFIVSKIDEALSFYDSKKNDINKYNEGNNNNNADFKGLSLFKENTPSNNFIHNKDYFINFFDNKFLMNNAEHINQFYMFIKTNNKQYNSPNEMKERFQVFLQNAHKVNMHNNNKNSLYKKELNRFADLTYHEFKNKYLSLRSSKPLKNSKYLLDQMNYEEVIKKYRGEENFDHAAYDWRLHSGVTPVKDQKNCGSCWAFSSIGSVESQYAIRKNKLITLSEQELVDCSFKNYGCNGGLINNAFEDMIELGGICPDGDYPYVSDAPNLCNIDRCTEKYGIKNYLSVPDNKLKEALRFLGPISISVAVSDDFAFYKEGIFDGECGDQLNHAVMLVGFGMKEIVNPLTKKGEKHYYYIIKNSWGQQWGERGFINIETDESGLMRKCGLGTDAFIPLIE
- assay.procedure: Inhibition of N-terminal 6His-tagged recombinant Plasmodium falciparum FP2 expressed in Escherichia coli M15 using Z-Phe-Arg-AMC as substrate measured after 30 mins by microplate reader analysis
parameter: IC50 (µM)
Answers are plain numbers, in µM.

// query Please report IC50 for the following compound: O=C(Cn1cc(CN2CCN(c3ccnc4cc(Cl)ccc34)CC2)nn1)Nc1cccc([N+](=O)[O-])c1
// result 8.1

---

- target.desc: Falcipain 2 (Plasmodium falciparum, UniProt Q9N6S8)
- assay.procedure: Binding affinity to N-terminal 6His-tagged recombinant Plasmodium falciparum FP2 expressed in Escherichia coli M15 assessed as dissociation constant incubated for 15 mins in presence of lysine reactive dye by microscale thermophoretic analysis
Assignment: determine reported Kd for the given compounds.
Answers are plain numbers, in µM.

CC(C)C[C@H](NC(=O)[C@H]1O[C@@H]1C(=O)O)C(=O)NCCCCN=C(N)N [E-64]    1.18

# next compound below
// query Please report Kd for the following compound: O=C(Cn1cc(CN2CCN(c3ccnc4cc(Cl)ccc34)CC2)nn1)Nc1cccc([N+](=O)[O-])c1
// result 2.99

---

- Test system: Plasmodium falciparum
- assay.procedure: Antimalarial activity against schizont stage chloroquine-sensitive Plasmodium falciparum 3D7 assessed as growth inhibition incubated with compound for 6 hrs and measured 72 hrs post invasion by SYBR Green dye based analysis
- Type: functional, organism-based
parameter: IC50 (µM)
Answers are plain numbers, in µM.

// query Report measured IC50 on Plasmodium falciparum; entry: O=C(Cn1cc(CN2CCN(c3ccnc4cc(Cl)ccc34)CC2)nn1)Nc1cccc([N+](=O)[O-])c1
// result 3.09

All values here come from ChEMBL document CHEMBL5523667.
